Data origin: the supplement of paper PMC7125110

B1: glmS ribozyme (parent)
chain: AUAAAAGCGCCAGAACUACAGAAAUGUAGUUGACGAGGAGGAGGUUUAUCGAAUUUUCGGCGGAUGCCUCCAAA

- Variants of: B1
- METHOD SUMMARY: self-cleavage kobs at 10000 uM GlcN6P; higher = faster cleavage; RNA array
- ASSAY CONTEXT: with glucosamine-6-phosphate
Fewer inactive variants are shown than the library holds.
Please go through the items and note down their self-cleavage kobs at 10000 uM GlcN6P.
Give bare numbers, in s⁻¹.

Check out these entries, answers already filled in.
Any idea what self-cleavage kobs at 10000 uM GlcN6P was measured for U47C A53U C68G ?
3.22e-05

Any idea what self-cleavage kobs at 10000 uM GlcN6P was measured for C16U A42G ?
0.0355

Any idea what self-cleavage kobs at 10000 uM GlcN6P was measured for A14G U30C A39C U54A ?
0.000156

# map each variant to its self-cleavage kobs at 10000 uM GlcN6P
1. U30G U31G U46G U55A
2. G32U C34G C68G
3. U54G U69A

1: 0.00358; 2: 3.41e-05; 3: 0.000103

# map each variant to its self-cleavage kobs at 10000 uM GlcN6P
1. U49G C70U
2. A15G C50U

0.000837
8.01e-05
